Just for reference, patent US20230295293A1 is where these values come from.

Tested System: T1, Human FRγ ECD-Avi-His (human, biotin on the Avi-tag (BirA) in the HTRF assays)
T1 construct: Soluble region with C-terminal Avi and His tags
T1 sequence (chain, as listed by the source limits assumed): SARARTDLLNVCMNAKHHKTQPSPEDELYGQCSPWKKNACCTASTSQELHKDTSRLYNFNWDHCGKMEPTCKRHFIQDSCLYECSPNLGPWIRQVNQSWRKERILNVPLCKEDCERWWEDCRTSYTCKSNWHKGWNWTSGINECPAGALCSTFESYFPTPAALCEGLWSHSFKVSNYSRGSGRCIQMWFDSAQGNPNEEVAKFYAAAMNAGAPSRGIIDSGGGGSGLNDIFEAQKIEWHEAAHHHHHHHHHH
Assay Summary: HTRF antigen binding assay; hybridoma supernatant, 1 nM biotinylated antigen
Measurement Type: binding result

{"Binder": "AB1370026 (hybridoma IgG) (antibody, V domains shown, IgG from hybridoma of Del-1 humanised mouse, tested as supernatant ('mouse IgG', detected with anti-mouse IgG) or Phynexus purified) VH: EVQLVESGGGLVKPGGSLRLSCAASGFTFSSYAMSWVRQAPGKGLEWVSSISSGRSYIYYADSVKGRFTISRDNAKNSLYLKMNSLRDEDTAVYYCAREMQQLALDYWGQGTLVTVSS VL: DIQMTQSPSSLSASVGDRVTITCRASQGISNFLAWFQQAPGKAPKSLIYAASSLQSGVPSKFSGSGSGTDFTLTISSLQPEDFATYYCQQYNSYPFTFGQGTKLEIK", "Measurement Type": "binding result", "Result": "no binding"}
{"Binder": "AB1370035 (hybridoma IgG) (antibody, V domains shown, IgG from hybridoma of Del-1 humanised mouse, tested as supernatant ('mouse IgG', detected with anti-mouse IgG) or Phynexus purified) VH: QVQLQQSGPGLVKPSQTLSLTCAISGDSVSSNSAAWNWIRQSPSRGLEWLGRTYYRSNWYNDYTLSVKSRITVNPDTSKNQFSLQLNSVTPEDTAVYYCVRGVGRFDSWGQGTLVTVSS VL: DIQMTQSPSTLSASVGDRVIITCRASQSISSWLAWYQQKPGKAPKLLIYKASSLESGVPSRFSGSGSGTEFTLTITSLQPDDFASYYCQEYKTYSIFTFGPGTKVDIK", "Measurement Type": "binding result", "Result": "no binding"}
{"Binder": "AB1370095 (hybridoma IgG) (antibody, V domains shown, IgG from hybridoma of Del-1 humanised mouse, tested as supernatant ('mouse IgG', detected with anti-mouse IgG) or Phynexus purified) VH: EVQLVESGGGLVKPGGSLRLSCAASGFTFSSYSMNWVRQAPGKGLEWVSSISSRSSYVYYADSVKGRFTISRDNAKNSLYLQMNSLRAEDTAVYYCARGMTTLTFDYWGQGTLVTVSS VL: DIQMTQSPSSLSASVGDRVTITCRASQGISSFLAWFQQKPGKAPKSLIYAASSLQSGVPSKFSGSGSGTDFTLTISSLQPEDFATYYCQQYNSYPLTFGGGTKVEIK", "Measurement Type": "binding result", "Result": "no binding"}
